Attribution: patent US20230272056A1

system-under-test: T1, human LAP-TGFB1 Fc fusion (human)
T1 construct: also called human LAP-TGFβ1-Fc; human LAP-TGFβ-Fc isoform 1
T1 sequence (chain, as listed by the source limits assumed): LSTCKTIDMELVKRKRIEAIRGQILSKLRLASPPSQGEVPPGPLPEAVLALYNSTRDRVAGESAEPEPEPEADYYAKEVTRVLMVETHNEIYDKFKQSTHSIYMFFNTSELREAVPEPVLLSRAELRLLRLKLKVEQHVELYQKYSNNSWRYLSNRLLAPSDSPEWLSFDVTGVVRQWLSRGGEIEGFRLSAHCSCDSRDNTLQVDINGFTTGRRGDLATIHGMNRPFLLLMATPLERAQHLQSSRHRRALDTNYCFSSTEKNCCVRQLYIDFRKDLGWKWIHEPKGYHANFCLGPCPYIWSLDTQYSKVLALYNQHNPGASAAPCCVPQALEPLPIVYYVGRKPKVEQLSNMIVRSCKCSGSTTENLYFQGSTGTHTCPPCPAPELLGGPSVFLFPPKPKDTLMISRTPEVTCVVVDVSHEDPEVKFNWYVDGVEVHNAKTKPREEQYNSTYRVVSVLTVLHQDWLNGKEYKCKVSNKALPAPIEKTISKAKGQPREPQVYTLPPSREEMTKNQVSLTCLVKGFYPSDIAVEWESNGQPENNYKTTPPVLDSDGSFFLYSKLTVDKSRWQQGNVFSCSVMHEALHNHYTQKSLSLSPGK
protocol-text: BLI off-rate screen
Kindly supply the reported koff values for the records listed here.
One number for each entry, in s⁻¹.

{"binder": "VL T30D (37BIT) (Fab, V domains shown, Heavy chain: parental 20E6 Fab HC, implied) VH: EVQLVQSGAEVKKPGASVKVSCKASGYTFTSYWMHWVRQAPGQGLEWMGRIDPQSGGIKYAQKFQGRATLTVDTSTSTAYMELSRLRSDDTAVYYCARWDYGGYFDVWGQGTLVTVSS VL: DIQMTQSPSSLSASVGDRVTITCRASQDIDNYLNWYQQKPGKAVKLLIYYTSRLHSGVPSRFSGSGSGTDYTLTISSLQPEDFATYFCQQGDTLPWTFGQGTKLEIKR", "reading-unit": "s⁻¹", "measured-number": 0.0402}
{"binder": "VL L94D (32BIT) (Fab, V domains shown, Heavy chain: parental 20E6 Fab HC, implied) VH: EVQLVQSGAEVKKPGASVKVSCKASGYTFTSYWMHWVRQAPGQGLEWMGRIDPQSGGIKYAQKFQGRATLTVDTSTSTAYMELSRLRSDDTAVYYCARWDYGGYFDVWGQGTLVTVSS VL: DIQMTQSPSSLSASVGDRVTITCRASQDITNYLNWYQQKPGKAVKLLIYYTSRLHSGVPSRFSGSGSGTDYTLTISSLQPEDFATYFCQQGDTDPWTFGQGTKLEIKR", "reading-unit": "s⁻¹", "measured-number": 0.0618}

The recorded koff for entry VH K59Q (28BIT) (Fab, V domains shown, Light chain: parental 20E6 LC, implied) VH: EVQLVQSGAEVKKPGASVKVSCKASGYTFTSYWMHWVRQAPGQGLEWMGRIDPQSGGIQYAQKFQGRATLTVDTSTSTAYMELSRLRSDDTAVYYCARWDYGGYFDVWGQGTLVTVSS VL: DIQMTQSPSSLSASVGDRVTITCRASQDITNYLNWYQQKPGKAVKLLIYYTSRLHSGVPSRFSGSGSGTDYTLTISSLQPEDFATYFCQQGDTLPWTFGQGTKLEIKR equals 0.0596
